Molecular target: UniProt Q15119
Experiment: Inhibitory action of PDHK activity in vitro (kinase reaction, residual PDH activity measured)
Type: biochemical
Conditions: PDHK inhibitory activity, class symbol of IC50
pIC50: −log10 of the molar value.
Hi there, I'd appreciate the recorded pIC50 for every entry that follows.

Suppose we examine the molecule CN(C)c1ccc2c(c1)C(O)(C(F)(F)F)c1ccccc1-2 (centres unmarked) [compound 80] ; what pIC50 value has been reported?
< 6.00

Endpoint output: pIC50 of CN1C(=O)CC[C@@H]1COc1ccc2c(c1)C(O)(C(F)(F)F)c1ccccc1-2 (some centres unmarked) [compound 447] . Value?
6.00 to 7.00

// lookup pIC50 for Cn1cc(-c2cc(OCC(N)=O)cc3c2-c2ccccc2C3(O)C(F)(F)F)cn1 (single isomer, unassigned) [compound 467]
> 7.00

Data request, read-out pIC50, for O=C(O)C1CCN1C(=O)c1ccc2c(c1)C(O)(C(F)(F)F)c1ccccc1-2 (centres unmarked) [compound 314]
< 6.00

Recorded pIC50 for OC1(C(F)(F)F)c2ccccc2-c2ncccc21 (centres unmarked) [compound 1] , please?
< 6.00

Which pIC50 value is on record for Cc1ccc2c(c1)C(O)(C(F)(F)F)c1ccccc1-2 (centres unmarked) [compound 3] ?
< 6.00

Recorded pIC50 of CCn1cc(-c2cccc3c2-c2ccccc2C3(O)C(F)(F)F)cn1 (centres unmarked) [compound 347] , please.
> 7.00

Returns the measured pIC50 for the input molecule. Input: CC(C)n1cc(-c2cc(OCCCC(=O)O)cc3c2-c2ccccc2C3(O)C(F)(F)F)cn1 (single isomer, unassigned) [compound 553]
> 7.00

For the molecule shown here, CC(=O)c1cc(OCCN2CCCC2=O)cc2c1-c1ccccc1C2(O)C(F)(F)F (centres unmarked) [compound 599] , give the reported pIC50.
> 7.00

Using the record for CN(C)C(=O)C1CCCN1C(=O)c1ccc2c(c1)C(O)(C(F)(F)F)c1ccccc1-2 (centres unmarked) [compound 178] , report its pIC50.
< 6.00

I am curious: what pIC50 value has been reported for O=C(O)CCCOc1cc(Br)c2c(c1)C(O)(C(F)(F)F)c1ccccc1-2 (centres unmarked) [compound 404] ?
6.00 to 7.00

###

Give measured IC50 for each item. Keep answers brief.
Biological target: human PDHK2 (hPDHK2) (Homo sapiens (Human))
Test: Inhibitory action of PDHK activity in vitro (kinase reaction, residual PDH activity measured)
Format: biochemical
Conditions: read-out: PDHK inhibitory activity IC50
Give the number; µM is assumed, so skip it.

GET /values?readout=IC50&item= CNC(=O)COC1CN(C(=O)c2ccc3c(c2)C(O)(C(F)(F)F)c2ccccc2-3)C1 (centres unmarked)
0.909

Please look up its IC50: OC1(C(F)(F)F)c2ccccc2-c2ccc(OCC3CCC3)cc21 (centres unmarked)
1.08

Query: IC50; subject: CNC(=O)C1CCN(C(=O)c2ccc3c(c2)C(O)(C(F)(F)F)c2ccccc2-3)C1 (centres unmarked)
1.05

Could you share which IC50 value was measured for OC1(C(F)(F)F)c2ccccc2-c2ccc(-c3ccccn3)cc21 (centres unmarked) ?
1.23

Field request: IC50 | item: NC(=O)C1CCN(C(=O)c2ccc3c(c2)C(O)(C(F)(F)F)c2ccccc2-3)C1 (centres unmarked)
1.14
